Target: Mannose-6-phosphate isomerase (Homo sapiens) (UniProt P34949)
Sequence (P34949 whole entry, looked up): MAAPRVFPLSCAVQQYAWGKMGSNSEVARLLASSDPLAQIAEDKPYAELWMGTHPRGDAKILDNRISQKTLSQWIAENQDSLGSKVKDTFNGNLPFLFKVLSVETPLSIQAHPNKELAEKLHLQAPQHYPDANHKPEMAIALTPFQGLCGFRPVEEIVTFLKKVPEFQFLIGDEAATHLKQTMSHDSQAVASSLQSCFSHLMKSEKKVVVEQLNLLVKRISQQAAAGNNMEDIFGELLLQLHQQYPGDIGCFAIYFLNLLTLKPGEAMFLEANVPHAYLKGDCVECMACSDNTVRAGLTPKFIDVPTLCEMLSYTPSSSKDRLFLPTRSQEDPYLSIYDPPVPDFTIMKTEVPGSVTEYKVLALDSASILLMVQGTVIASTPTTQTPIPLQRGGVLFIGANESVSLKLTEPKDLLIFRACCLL
Experiment: MPI inhibition at elevated mannose 6-phosphate – biochemical, fluorescence intensity, high mannose 6-phosphate, primary screen (AID 1220)
Conditions: recombinant PMI enzyme, coupled fluorescence intensity; at 20 µM
In all, about 190,000 compounds went through this assay and about 1,300 (0.68%) were called active. No stated cut-off is given here; in the data, active means inhibition above about 50%; inactive means the rest. What follows is part of a selection rich in actives, with near analogues and random picks from the rest.
Can you answer with just one of these options? active, inactive

Some solved cases for reference:
smiles_input=CCN1CCc2c(C#N)c(NCc3ccccc3)nc(N(CC)CC)c2C1 qualitative_label=inactive
smiles_input=CC(C)CCNc1nc(N2CCCC2)c2c(c1C#N)CCN(C)C2 qualitative_label=inactive
smiles_input=CN1CCc2c(C#N)c(N3CCCCC3)nc(NCc3ccccc3)c2C1 qualitative_label=active
smiles_input=Nc1[nH]nc2nc(NCc3ccccc3)c3c(c12)CCN(Cc1ccccc1)C3 qualitative_label=inactive

// return assay outcome for C=CCNc1nc(N2CCOCC2)c(C#N)c2c1CN(C)CC2
inactive

// return assay outcome for N#Cc1c(NCCN)nc(NCc2ccccc2)c2c1CCN(Cc1ccccc1)C2
active

###

Target: Mannose-6-phosphate isomerase (Homo sapiens) (UniProt P34949)
Experiment: MPI inhibition at elevated mannose 6-phosphate – biochemical, fluorescence intensity, high mannose 6-phosphate, primary screen (AID 1220)
Conditions: recombinant PMI enzyme, coupled fluorescence intensity; at 20 µM; hits give high values
In all, about 190,000 compounds went through this assay and about 1,300 (0.68%) were called active. What follows is part of a selection rich in actives, with near analogues and random picks from the rest.
inhibition for assorted molecules
Numeric only. Scale: %

Log: Mannose-6-phosphate isomerase (Homo sapiens) (UniProt P34949), molecule CCn1c(SCC(=O)N/N=C/c2ccc(C)o2)nnc1-c1ccccc1 , inhibition = 3.1

Log: Mannose-6-phosphate isomerase (Homo sapiens) (UniProt P34949), molecule O=C(C1CCCCN1S(=O)(=O)c1ccccc1)N1CCN(C(c2ccccc2)c2ccccc2)CC1 (stereo unspecified) , inhibition = 9.8

Log: Mannose-6-phosphate isomerase (Homo sapiens) (UniProt P34949), molecule O=C(/C(=N/N=C/c1ccc(O)c(O)c1)c1ccccc1)c1ccccc1 , inhibition = 24.9

Log: Mannose-6-phosphate isomerase (Homo sapiens) (UniProt P34949), molecule O=C(c1cc2nc(-c3ccc(Cl)cc3)cc(C(F)(F)F)n2n1)N1CCOCC1 , inhibition = 9.1

Log: Mannose-6-phosphate isomerase (Homo sapiens) (UniProt P34949), molecule Cn1c(CN2CCCCC2)nc2cc(NC(=O)c3ccc(F)cc3)ccc21 , inhibition = 10.4

Log: Mannose-6-phosphate isomerase (Homo sapiens) (UniProt P34949), molecule O=[N+]([O-])c1cc(-c2ccc(C(=S)N3CCOCC3)o2)ccc1Cl , inhibition = 61

Log: Mannose-6-phosphate isomerase (Homo sapiens) (UniProt P34949), molecule CCN1/C(=C/c2cc[n+](C)cc2)C=Cc2cc(C)ccc21 , inhibition = 66.7

Log: Mannose-6-phosphate isomerase (Homo sapiens) (UniProt P34949), molecule C=CC[n+]1c(/C=C2\C=Cc3cc(C)ccc3N2CC)ccc2ccccc21 , inhibition = 9

Log: Mannose-6-phosphate isomerase (Homo sapiens) (UniProt P34949), molecule CCCCc1cc(=O)oc2cc(O)cc(O)c12 , inhibition = 64

###

Target: Mannose-6-phosphate isomerase (Homo sapiens) (UniProt P34949)
Test: MPI inhibition at elevated mannose 6-phosphate – biochemical, fluorescence intensity, high mannose 6-phosphate, primary screen (AID 1220)
Conditions: recombinant PMI enzyme, coupled fluorescence intensity; at 20 µM
Out of some 190,000 compounds screened, about 1,300 (0.68%) were called active. No stated cut-off is given here; in the data, active means inhibition above about 50%; inactive means the rest. The list comes from a sample in which actives are over-represented; it also holds close analogues and randomly drawn compounds.
Can you answer with just one of these options? active, inactive

compound=O=C(CSc1nnc(SCc2cccc3ccccc23)s1)Nc1ccc(C(=O)O)cc1 system="Mannose-6-phosphate isomerase (Homo sapiens) (UniProt P34949)" qualitative_label=inactive
compound=Cc1c(Nc2cc(N3CCCCCC3)c3nonc3c2[N+](=O)[O-])c(=O)n(-c2ccccc2)n1C system="Mannose-6-phosphate isomerase (Homo sapiens) (UniProt P34949)" qualitative_label=active
compound="CCc1ccc(NC(=O)CC2C(=O)Nc3c2c(=O)n(C)c(=O)n3C)cc1 (centres undefined)" system="Mannose-6-phosphate isomerase (Homo sapiens) (UniProt P34949)" qualitative_label=inactive

// return assay outcome for Cc1ccccc1-n1c(=O)cc(N2CCC3(CC2)OCCO3)[nH]c1=O
inactive

// return assay outcome for Nc1ccc2c(C(F)(F)F)cc(C(F)(F)F)nc2n1
active

###

Target: Mannose-6-phosphate isomerase (Homo sapiens) (UniProt P34949)
Test: MPI inhibition at elevated mannose 6-phosphate – biochemical, fluorescence intensity, high mannose 6-phosphate, primary screen (AID 1220)
Conditions: recombinant PMI enzyme, coupled fluorescence intensity; at 20 µM; hits give high values
In all, about 190,000 compounds went through this assay and about 1,300 (0.68%) were called active. For the sample, actives were picked, then their nearest neighbours and some compounds at random.
measured_quantity: inhibition

Examples with their reported inhibition follow.
compound=COC(=O)c1sccc1NC(=O)CSc1nnnn1-c1ccccc1F result="10.3% (inactive)"
compound="CCC12CN3CC(CC)(CN(C1)C3c1ccccc1Cl)C2O (stereo unspecified)" result="6.4% (inactive)"
compound=Cc1ccc(C=Nc2ccccc2C(N)=O)cc1 result="0.6% (inactive)"

For reference, reported inhibition for COc1ccc(/C=N\n2nnc3ccccc32)cc1 stands at -4.2% (inactive)

For reference, reported inhibition for CCOC(=O)c1c(N/N=C/c2ccncc2)n[nH]c1C stands at -0.3% (inactive)

For reference, reported inhibition for CCOC(=O)Nc1ccc2c(c1)N(C(=O)OC)c1ccccc1CC2 stands at -3.2% (inactive)

For reference, reported inhibition for O=C(CSc1nnc(-c2cccs2)n1-c1ccccc1)NCC1CCCO1 (stereo unspecified) stands at 5.8% (inactive)

For reference, reported inhibition for CCCCc1nnc(NC(=O)CSc2nc(=O)cc(N)n2-c2ccccc2)s1 stands at 0.8% (inactive)

###

Molecular target: Mannose-6-phosphate isomerase (Homo sapiens) (UniProt P34949)
Assay: MPI inhibition at elevated mannose 6-phosphate – biochemical, fluorescence intensity, high mannose 6-phosphate, primary screen (AID 1220)
Conditions: recombinant PMI enzyme, coupled fluorescence intensity; at 20 µM
Among all 190,000 compounds or so, about 1,300 (0.68%) were called active. Rule as the data show it: active = inhibition above about 50%; inactive = the rest. The sample holds actives, similar compounds and a random draw of the others, so the mix is not that of the screen.
Can you answer with just one of these options? 1 (yes) = active, 0 (no) = inactive

molecule=Cc1noc(C)c1S(=O)(=O)N1CCC(C(=O)NCCN2CCC(C)CC2)CC1 system="Mannose-6-phosphate isomerase (Homo sapiens) (UniProt P34949)" qualitative_label="0 (no)"
molecule="Nc1nc(SCC(=O)NCC2CCCO2)n[nH]1 (stereo not given)" system="Mannose-6-phosphate isomerase (Homo sapiens) (UniProt P34949)" qualitative_label="0 (no)"
molecule=COc1ccc(C(=O)/C=C/c2ccc(OC)c(O)c2)c(F)c1 system="Mannose-6-phosphate isomerase (Homo sapiens) (UniProt P34949)" qualitative_label="1 (yes)"
molecule="COc1ccc(CN2CCNC(=O)C2CC(=O)N2CCCCO2)cc1OC (stereo not given)" system="Mannose-6-phosphate isomerase (Homo sapiens) (UniProt P34949)" qualitative_label="0 (no)"
molecule=COc1ccc(C(=O)/C=C/c2ccccc2)c(O)c1 system="Mannose-6-phosphate isomerase (Homo sapiens) (UniProt P34949)" qualitative_label="0 (no)"

// return assay outcome for C#CCOCCOCCOCCNc1nc(N2CCN(C(=O)[C@H](CCC(=O)O)n3cc(C(N)Cc4ccc(O)cc4)nn3)CC2)nc(N2CCN(C(=O)[C@H](CCC(=O)O)n3cc(C(N)[C@H](C)CC)nn3)CC2)n1 (stereo not given in full)
0 (no)

###

Target: Mannose-6-phosphate isomerase (Homo sapiens) (UniProt P34949)
Experiment: MPI inhibition at elevated mannose 6-phosphate – biochemical, fluorescence intensity, high mannose 6-phosphate, primary screen (AID 1220)
Details: recombinant PMI enzyme, coupled fluorescence intensity; at 20 µM; hits give high values
The whole screen tested about 190,000 compounds, of which about 1,300 (0.68%) were called active. The full list was thinned out, with actives kept by preference.
measured_quantity: inhibition (%)
Numeric only. Scale: %

molecule=CNC(=O)c1[nH]cnc1C(=O)N[C@@H](Cc1ccccc1)C(=O)OC(C)(C)C unit_info=% quantitative_readout=2.7

For reference, reported inhibition for COc1ccc(-c2oc3ncnc(N)c3c2-c2ccccc2)cc1 stands at 5.7

For reference, reported inhibition for O=C(O)Cc1cn(Cc2ccc(F)cc2)c2ccccc12 stands at -9.7

For reference, reported inhibition for CCOC(=O)n1c(=O)n(Cc2ccc(Cl)c(Cl)c2)c2ccccc21 stands at 12.4

For reference, reported inhibition for O=S1(=O)NC(=NCCc2ccccn2)c2ccccc21 stands at -6.8

For reference, reported inhibition for COc1cc(/C=C2\SC(c3ccc(C)cc3)=NC2=O)cc(OC)c1O stands at 26.7

For reference, reported inhibition for Cn1cc(C(c2ccccn2)c2cn(C)c3ccccc23)c2ccccc21 stands at -0.8

For reference, reported inhibition for Cc1[nH][nH]c(=O)c1C(c1ccc(-c2ccc(Cl)c(Cl)c2)o1)c1c(C)[nH][nH]c1=O stands at -45.1

For reference, reported inhibition for COC(=O)c1ccc2c(=O)n(CC3CCCO3)c(SCC(=O)NCCc3ccc(S(N)(=O)=O)cc3)nc2c1 (stereo not given) stands at -2.9

For reference, reported inhibition for Cc1ccc(N(CC(=O)Nc2ccc(F)c(Cl)c2)S(=O)(=O)c2c(C)noc2C)cc1 stands at 11.9

Where do these numbers come from? They come from PubChem BioAssay AID1220.
